assay-name: Drug level in rat cerebrospinal fluid at 100 mg/kg, ip after 30 mins
Assay type: ADME, organism-based
Design: dose 100 mg/kg, route intraperitoneal
condition-parameters: read-out: Drug uptake
readout-name: concentration at 0.5 h (nM)

>>> result_value("Cn1c(SCC(=O)N2CCC[C@H]2C(=O)Nc2ccccc2-c2ccccc2)nc2ccccc21")
43
